- system name: T1, S. pombe RNA triphosphatase Pct1 (wild type) (S. pombe, UniProt Q9P6Q6 1-303)
- T1 sequence (looked up): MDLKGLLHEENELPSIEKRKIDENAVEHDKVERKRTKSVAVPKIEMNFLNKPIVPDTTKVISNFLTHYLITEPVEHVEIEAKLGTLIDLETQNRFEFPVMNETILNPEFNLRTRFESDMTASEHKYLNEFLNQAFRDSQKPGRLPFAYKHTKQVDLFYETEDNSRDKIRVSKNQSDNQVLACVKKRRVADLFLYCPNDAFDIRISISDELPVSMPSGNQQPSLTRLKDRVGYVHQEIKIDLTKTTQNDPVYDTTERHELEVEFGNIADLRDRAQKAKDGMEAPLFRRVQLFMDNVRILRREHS
- experiment: fluorescence polarisation
recorded metric: Ki (µM)
Numbers only, in µM.

Query (binder): SGSKTPAWNSGSKTPAWNSGSK [unphosphorylated 22-amino acid synthetic Spt5 CTD peptide SGSKTPAWNSGSKTPAWNSGSK (untagged)] ; field requested: Ki
79
